test: Tissue distribution of 18F imaging agents in rats; type: in vivo, Male Sprague Dawley rats; settings: rat, iv tail vein ~15 μCi, 60 min post injection, ± SEM
Below, each of the molecules is paired with its reported Pancreas, imaging agent distribution at 60 min value.
The answer is to be given in % ID/g; state only the numeric part.

MOLECULE | READOUT VALUE
CC(C)(C)n1ncc(OCc2ccc(C#CCCF)cc2)c(Cl)c1=O [Example 67K] | 0.38
Cc1c(OCc2ccc(COCCF)cc2)cnn(C(C)(C)C)c1=O [Example 67I] | 0.23
CC(OCCF)c1ccc(COc2cnn(C(C)(C)C)c(=O)c2Cl)cc1 (centres unmarked) [Example 67G] | 0.26
CC(C)(C)n1ncc(OCc2ccc(C(=O)OCCF)cc2)c(Cl)c1=O [Example 67J] | 0.23

So for CC(C)(C)n1ncc(OCc2ccc(-c3cnc(F)nc3)cc2)c(Cl)c1=O [Example 67L] , the logged Pancreas, imaging agent distribution at 60 min turned out to be 0.33

----------
test: Tissue distribution of 18F imaging agents in rats; type: in vivo, Male Sprague Dawley rats; conditions: rat, iv tail vein ~15 μCi, 60 min post injection, ± SEM
MEASURE: Blood, imaging agent distribution at 60 min (% ID/g)
Response body: numeric value in % ID/g, unit text excluded.

COMPOUND | READOUT VALUE
CC(C)(C)n1ncc(OCc2ccc(C#CCCF)cc2)c(Cl)c1=O [Example 67K] | 0.03
[2H]C([2H])(OCCF)c1ccc(COc2cnn(C(C)(C)C)c(=O)c2Cl)cc1 [Example 67E] | 0.26
CC(C)(C)n1ncc(OCc2ccc(OCCCF)c(Cl)c2)c(Cl)c1=O [Example 67C] | 0.20
CC(C)(C)n1ncc(OCc2ccc(OCCOCCF)cc2)c(Cl)c1=O [Example 67B] | 0.26

Turning to the following compound.
Per the records, this compound ( Cc1c(OCc2ccc(COCCF)cc2)cnn(C(C)(C)C)c1=O [Example 67I] ) has Blood, imaging agent distribution at 60 min equal to 0.16

----------
experiment: Tissue distribution of 18F imaging agents in rats; format: in vivo, Male Sprague Dawley rats; details: rat, iv tail vein ~15 μCi, 60 min post injection, ± SEM
Recorded Heart, imaging agent distribution at 60 min by entry
Unit % ID/g implied. Number only.

Some molecules with known Heart, imaging agent distribution at 60 min results, for comparison:
MOLECULE | READOUT VALUE
CC(C)(C)n1ncc(OCc2cccc(COCCF)c2)c(Cl)c1=O [Example 67A] | 0.84
CC(C)(C)n1ncc(OCc2cccc(OCCF)c2)c(Cl)c1=O [Example 67F] | 0.87
Cc1c(OCc2ccc(COCCF)cc2)cnn(C(C)(C)C)c1=O [Example 67I] | 1.78
CC(C)(C)n1ncc(OCc2ccc(OCCCF)c(Cl)c2)c(Cl)c1=O [Example 67C] | 4.54
CC(C)(C)n1ncc(OCc2ccc(C(=O)OCCF)cc2)c(Cl)c1=O [Example 67J] | 0.50
CC(C)(C)n1ncc(OCc2ccc(OCCF)cc2)c(Cl)c1=O [Example 67D] | 4.66
CC(OCCF)c1ccc(COc2cnn(C(C)(C)C)c(=O)c2Cl)cc1 (stereo not drawn) [Example 67G] | 0.98
[2H]C([2H])(OCCF)c1ccc(COc2cnn(C(C)(C)C)c(=O)c2Cl)cc1 [Example 67E] | 3.61

// CC(C)(C)n1ncc(OCc2ccc(-c3cnc(F)nc3)cc2)c(Cl)c1=O [Example 67L] : Heart, imaging agent distribution at 60 min value = 0.62

----------
assay: Tissue distribution of 18F imaging agents in rats; assay type: in vivo, Male Sprague Dawley rats; settings: rat, iv tail vein ~15 μCi, 15 min post injection, ± SEM
MEASURE: Spleen, imaging agent distribution at 15 min (% ID/g)
Lab book: enter the figure in % ID/g, no units written.

Completed entries (count: 5):
COMPOUND | READOUT VALUE
CC(C)(C)n1ncc(OCc2ccc(Oc3cccnc3F)cc2)c(Cl)c1=O [Example 67O] | 0.31
CC(C)(C)n1ncc(CCc2ccc(COCCF)cc2)c(Cl)c1=O [Example 67M] | 0.35
CC(C)(C)n1ncc(OCc2ccc(OCCCF)c(Cl)c2)c(Cl)c1=O [Example 67C] | 0.37
CC(C)(C)n1ncc(OCc2ccc(C(=O)OCCF)cc2)c(Cl)c1=O [Example 67J] | 0.34
CC(C)(C)n1ncc(OCc2ccc(OCCF)cc2)c(Cl)c1=O [Example 67D] | 0.37

Then this compound:
Query CC(C)(C)n1ncc(OCc2ccc(C#CCCF)cc2)c(Cl)c1=O [Example 67K] yields Spleen, imaging agent distribution at 15 min of 0.31

----------
Assay: Tissue distribution of 18F imaging agents in rats
Format: in vivo, Male Sprague Dawley rats
Details: rat, iv tail vein ~15 μCi, 15 min post injection, ± SEM
Method: Anesthetized (sodium pentobarbital at 50 mg/kg, ip or isoflurane gas inhalation) Male Sprague Dawley rats (250-350 g) received an iv injection of the imaging agent (˜15 μCi) via the tail vein. […] All samples were then weighed and counted for radioactivity (Wallac Wizard 1480 or Packard Cobra II Autogamma); regional tissue uptake of the imaging agent was thus expressed as a percentage of the total injected dose per gram of tissue (% ID/g). […]
MEASURE: Muscle, imaging agent distribution at 15 min
Please answer in the form of a number followed by its unit of measurement.

Field: example entries. Status: answers known.
COMPOUND | READOUT VALUE
CC(C)(C)n1ncc(OCc2cccc(OCCF)c2)c(Cl)c1=O [Example 67F] | 0.60 ± 0.06 % ID/g
Cc1c(OCc2ccc(COCCF)cc2)cnn(C(C)(C)C)c1=O [Example 67I] | 0.28 ± 0.13 % ID/g
CC(C)(C)n1ncc(OCc2ccc(OCCF)cc2)c(Cl)c1=O [Example 67D] | 0.14 % ID/g
CC(C)(C)n1ncc(OCc2ccc(OCCOCCF)cc2)c(Cl)c1=O [Example 67B] | 0.19 ± 0.00 % ID/g
CC(C)(C)n1ncc(CCc2ccc(COCCF)cc2)c(Cl)c1=O [Example 67M] | 0.24 ± 0.04 % ID/g

Muscle, imaging agent distribution at 15 min reported for this compound CC(OCCF)c1ccc(COc2cnn(C(C)(C)C)c(=O)c2Cl)cc1 (stereo not drawn) [Example 67G] : 0.35 ± 0.04 % ID/g

Form field Muscle, imaging agent distribution at 15 min, entry CC(C)n1ncc(OCc2ccc(COCCF)cc2)c(Cl)c1=O [Example 67H] : 0.38 ± 0.02 % ID/g

The reported Muscle, imaging agent distribution at 15 min of the compound CC(C)(C)n1ncc(OCc2ccc(C#CCCF)cc2)c(Cl)c1=O [Example 67K] was 0.28 ± 0.02 % ID/g

For record [2H]C([2H])(OCCF)c1ccc(COc2cnn(C(C)(C)C)c(=O)c2Cl)cc1 [Example 67E] the listed Muscle, imaging agent distribution at 15 min is 0.77 ± 0.09 % ID/g

----------
test: Tissue distribution of 18F imaging agents in rats; type: in vivo, Male Sprague Dawley rats; details: rat, iv tail vein ~15 μCi, 60 min post injection, ± SEM
MEASURE: Femur, imaging agent distribution at 60 min (% ID/g)
The reply should be a number in % ID/g, with the unit left off.

Please review the entries below; each comes with its answer.
COMPOUND | READOUT VALUE
CC(C)(C)n1ncc(OCc2cccc(COCCF)c2)c(Cl)c1=O [Example 67A] | 0.17
CC(C)(C)n1ncc(CCc2ccc(COCCF)cc2)c(Cl)c1=O [Example 67M] | 0.43
[2H]C([2H])(OCCF)c1ccc(COc2cnn(C(C)(C)C)c(=O)c2Cl)cc1 [Example 67E] | 0.69
CC(C)(C)n1ncc(OCc2ccc(OCCF)cc2)c(Cl)c1=O [Example 67D] | 0.26
CC(C)(C)n1ncc(OCc2ccc(Oc3cccnc3F)cc2)c(Cl)c1=O [Example 67O] | 0.37

The measured Femur, imaging agent distribution at 60 min associated with CC(C)(C)n1ncc(OCc2ccc(C#CCCF)cc2)c(Cl)c1=O [Example 67K] reads 0.37

For this compound ( CC(OCCF)c1ccc(COc2cnn(C(C)(C)C)c(=O)c2Cl)cc1 (stereo not drawn) [Example 67G] ), measured Femur, imaging agent distribution at 60 min is 0.58

Record CC(C)(C)n1ncc(OCc2ccc(-c3cnc(F)nc3)cc2)c(Cl)c1=O [Example 67L] , field Femur, imaging agent distribution at 60 min: 0.78

The compound identified as CC(C)(C)n1ncc(OCc2ccc(OCCCF)c(Cl)c2)c(Cl)c1=O [Example 67C] registered its Femur, imaging agent distribution at 60 min at 0.84

----------
experiment: Tissue distribution of 18F imaging agents in rats; type: in vivo, Male Sprague Dawley rats; settings: rat, iv tail vein ~15 μCi, 60 min post injection, ± SEM
MEASURE: Femur, imaging agent distribution at 60 min (% ID/g)
Respond numerically; units are % ID/g and should not be typed.

According to the records, this compound CC(C)n1ncc(OCc2ccc(COCCF)cc2)c(Cl)c1=O [Example 67H] displays Femur, imaging agent distribution at 60 min of 0.71

Query Cc1c(OCc2ccc(COCCF)cc2)cnn(C(C)(C)C)c1=O [Example 67I] yields Femur, imaging agent distribution at 60 min of 0.31

Sample CC(C)(C)n1ncc(OCc2ccc(OCCOCCF)cc2)c(Cl)c1=O [Example 67B] ; Femur, imaging agent distribution at 60 min observed: 0.78

For record CC(C)(C)n1ncc(OCc2cccc(OCCF)c2)c(Cl)c1=O [Example 67F] the listed Femur, imaging agent distribution at 60 min is 0.57

Lab note: CC(C)(C)n1ncc(OCc2ccc(C(=O)OCCF)cc2)c(Cl)c1=O [Example 67J] gave Femur, imaging agent distribution at 60 min of 0.40
